# System: MS2 coat protein
# protocol_details: apparent KD of MS2 coat protein; designed switch direction (-1 OFF switch, 1 ON switch): -1; higher = weaker reporter binding
# settings: input ligand: microRNA oligo, concentration not stated
experimental_readout: apparent KD of MS2 coat protein (nM)

sequence_input: CGGUCGUCGUGAGGAUAUACAUGAGGAUCACCCAUGUUUCUCGGGUCGGUCGUCCGGUCGGUGGUGUAGAAGGCGCGGUGGCUG [random 3, A 14%] (Eterna round: R96, puzzle: Exclusion NG 2)
measurement: 95.6

sequence_input: CCUGUGUGAGGAUAUGGUGUUGGCCAAAAGGAAUAGCUCCUCCAGAAGGCACAUGAGGAUCACCCAUGUCGUGG [Jolly's Folly 23 - Jieux - Exclusion 4] (Eterna round: R96, puzzle: Exclusion 4)
measurement: 50.3

sequence_input: ACAUGUAUUGCAGGAUAUGGGACACAUGAGGAUCACCCAUGUGACCAUAUGUAAUGCUAAGAGUCUCAGAAGGGUAUGUACAUG [Ex NG2 #45] (Eterna round: R96, puzzle: Exclusion NG 2)
measurement: 8.59

sequence_input: UCAGUUAUGCGAGGAUAUCGACCUUUCCUCUUAACAUGAGGAUCACCCAUGUGCUAAUCCUUCAACGAGAAGGCGCUCAAACUC [JR_ExcNG2_Sub070] (Eterna round: R96, puzzle: Exclusion NG 2)
measurement: 170

sequence_input: AUGAGGUUAGGAUAUACAUGAGGAUCACCCAUGUUGGAGAAGGAAAUGUAAGUAGCGAGUAGAAGGAACGGAGC [JR_Exclu3_Sub059] (Eterna round: R96, puzzle: Exclusion 3)
measurement: 40.4

sequence_input: UAACAUGUCUGAGGAUAUCUGCACGUGUAGUGCAGAGAAGGCAGAACAUGAGGAUCACCCAUGUAGAUCAUUAAUUAAUUAAUU [ENG1/7-B3] (Eterna round: R96, puzzle: Exclusion NG 1)
measurement: 337

sequence_input: UACAUGAGGAUCACCCAUGUUUUGUCGUGUAUGGUACCCGUCUAGGAUAUCGUGUUAUUGGACCACGAGAAGGAGAGUAUCAAU [Excl-NG3-LRO02] (Eterna round: R96, puzzle: Exclusion NG 3)
measurement: 20.3

sequence_input: GCACUCUUGUGAGGAUAUCGUUAAGGGACUUAACGAGAAGGUACAUGAGGAUCACCCAUGUGGAUCCUCCCGUUUGGAUCACUU [Eternabot solution 3] (Eterna round: R96, puzzle: Exclusion NG 1)
measurement: 103

sequence_input: UUUAUAUAGUAAGGAUAUGUAUUAUUGUUAUCAACAGAAGGUACUGACAUGAGGAUCACCCAUGUUUUAGUGUGGGCAUGUAGU [JMF's solution 96] (Eterna round: R96, puzzle: Exclusion NG 1)
measurement: 277

----------
# Test system: K4 kissing-loop RNA reporter;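 also: bound reporter read as fluorescence of individual clusters on recovered sequencing chips by microscopy, with normalized cluster intensities fitted with a binding model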
# protocol_details: apparent KD of K4 kissing-loop reporter; higher = weaker reporter binding
# settings: Eterna round: R107; input ligand: arginine 13.2 mM
experimental_readout: apparent KD of K4 kissing-loop reporter (nM)

sequence_input: GGUUUAUAGGAGGAUACCAGUACAAAUAAAGUACAUUAAUAGUAGAGUGAUGUUCUAAAGUACCCUUGGCAGCUUAGAUUAAGUU [ExTheophylB.G]
measurement: 181
--
sequence_input: CAUACGCAUGGAGGAUAUGAGAUUUCUCAUAUUAUUUAAUAUUCUCAGUGAUGUUGAGAAUUUAACUCAGAAGGCCAUGUGUAUG [Ex FMN B 5]
measurement: 149
--
sequence_input: GAGUUUCGUAAAGGAUAUUCUAGCUAAAGCCAUUAGUGAUGUUGAUGUACGGACGGAAGCCUGGCAGAAGAAGGUUAACAGGAUU [theeternabot_sameState_KL_FMN_B_24]
measurement: 326
--
sequence_input: AGAGUCACAUAAGGAUAUCCCUUGACGGGAACCAAGUGAUGUUUGGUUAGACGACCUCUUAUCACGGGAGAAGGUAUAUUUGUAU [theeternabot_sameState_KL_FMN_B_27]
measurement: 580
--
sequence_input: AACUGUCAAGGACAACAUUACUGAGGUGAUACCAGCAUCGAAAGAUGCCCUUGGCAGCACUAACUUGCAGUGAUGUUGCAAGUAA [BrourdMod 2 - Jieux - Exclusion - Theophylline A]
measurement: 173
--
sequence_input: CAGAAGCAUUCGGCCGCCACUCCAGUGAUGUUGGAGCGGGAGGGCCUUAAACCUCGAGGCUGCUGGAGGACCGGGAAUGUUGAGG [Beerso]
measurement: 164
--
sequence_input: GGUGUUGUUUGUGCCGCCUUCCUCGUUCCUCGAGGACCGGUACGGCCGCCACUCGAGUGAUGUUUGGGUAGCGAUCCCUGUUAGU [Bdazzled - #11 Exc. Tryptophan A]
measurement: 573
--
sequence_input: AAGAGAUCGAGAAGGAGCGAGAAAGCUAGUACAUAUGUACUAGCAAAGCAGUGAUGUUGCACUCAGGUAGGUCGCUCGAUCUCAA [AK1 SS Arginine B]
measurement: 299
--
sequence_input: AAACUUGCAGUGAUGUUGCAAGUAGGUGAUACCAGCAUCGAAAGAUGCCCUUGGCAGCACCAAAACAUCACUUAGGUGCUGUCUA [(H1)-(H2)-(T1)-(T2)-(H)'-(T)'_Design6]
measurement: 494
--
sequence_input: GGUAGCAUGGCGGCCGCCACUGUUCGUGUUGCUAGCAGAUUCCAGUGAUGUUGGAAGCCUAGGUACAGGACCGGGCCAUGCUACC
measurement: 115
--
sequence_input: UAAUCCUAGUGAUAAUAAUCAAGUGGUGGACGAGGACCGGUACGGCCGCCACUCGAAAAUGCAGUGAUGUUGUAAUCCGGAUAAU [Exclusion - Tryptophan A (Freestyle 4)]
measurement: 701
--
sequence_input: GGUAGCAUGGCGGCCGCCACUUCGAAUAAGUGAUGUUUAUUUGACUGAGCACCCUAUGCCAUGUGAAGGACCGGGCCAUGCUACC
measurement: 138
--
sequence_input: CCAGGAUGAUGAGGAUGAUGAAUUACUGAAGGAGCGCAUAUGGUUGCAGGUAGGUCGCGGUGAACAAGUAUAGUGAUGUUAUGCC [SSArgA.W]
measurement: 615
--
sequence_input: UGAUUUAACUGAAGGAGCGGCAAUUGAUAAGUAAAUAUAGUGAUGUUAUAUAAGAUAGAGAGCCAGGUAGGUCGCAGAGGGAGGA [ExArgB.J]
measurement: 139
--
sequence_input: UAUAUACAUUUAUUAAUUAAAGGUUCAGAAGGAGCGUGAAUUAACACAGGUAGGUCGCUGAGCGAGUGAUGUUCGCUAUAUGGUA [JR_ExcArginiA_Sub005]
measurement: 72.6
--
sequence_input: GGAUAACAGGCAGGAUAUGCUUAGUAGUAAGGCCAUAUAUACGUAUAGAGUGAUGUUUUGUACAAGGCAGAAGGGCUAAAUCCAU [FMN B Excl V2 (+4G)]
measurement: 240
--
sequence_input: UUUAUUAAGACGGCCGCCACUGAUUCAUAGUGAUGUUAUGAUAUAAUUUUAGUGAUGUGCAUUAGCAGGACCGGGUCAAUUAUUA [#28 K4 Tryptophan B Exclusion]
measurement: 108
--
sequence_input: GGGUUUGCCGGAAGGAGCGCACUAUGGAGUGAUGUUCCAUGACCGCACAGCUUGCGGUCAGUGCAGGUAGGUCGCCGGUAACGUU [Enatbeve]
measurement: 181
--
sequence_input: UGUCAUUGGUCUGAUACCAGUUGAUGACGAAUACGUCAACUGGAGUGAUGUUCCUAAAACAACCCUUGGCAGCAGACCGAUGACU [TheoBS 1 #SwitchBubble #StaticStem]
measurement: 511
--
sequence_input: GCCGUACGCAUGGAUACCAGAUCUAGACGCUUAGUGAUGUUAAGUAAUCUGGUUAGACCGAUCCCUUGGCAGCCAUGCGUACGGC
measurement: 199
--
sequence_input: AGGGUUUAACACGAUACCAGCCUGGAGGCCAGUGAUGUUGGCCGAUUUGAACAGAAUUAAGGCCCUUGGCAGCGUCUUUAAAACC [Biarat]
measurement: 152
--
sequence_input: UACCUGCUGUCAGGAUAUGAGUGCAGUGAUGUUGCACUCAACGUAACCAUCUUGAAAUACAAACACUCAGAAGGGACGCACGAAG [Isattema]
measurement: 95.9
--
sequence_input: CCAUCGCUAUUCGAUACCAGUCAUAAAAUCUUUGGUUAAAUAAAGGAGUGAUGUUCCAAAGACCCUUGGCAGCGAAUAGUGAUGG [Theophylline B K4 6]
measurement: 624
